Tested on: P388 leukemia ip, CD2F1 mice, survival T/C
protocol details: NCI In Vivo Anticancer Drug Screen. Data for tumor model P388 Leukemia (intraperitoneal) in CD2F1 (CDF1) mice
measurement parameters: endpoint: median survival time; dose: 240.0 mg/kg/injection; schedule: Q01DX005 (ip); vehicle: saline with Tween-80; higher = longer survival
Inconclusive results and toxic doses are left out.
observation type: T/C

compound="O=C1CCC(c2nc3ccccc3[nH]2)N1Cc1ccc(Cl)cc1 (configuration not stated)" observation_type=T/C observed="86 % of control"
compound=Nc1nnc(Cc2ccc(Br)cc2)o1 observation_type=T/C observed="100 % of control"
compound=Cc1nnc2c3nccnc3c(N)nn12 observation_type=T/C observed="104 % of control"
compound=O=C(N/N=C/c1cccc(C(F)(F)F)c1)c1ccncc1 observation_type=T/C observed="90 % of control"
compound=COc1cc(/C=C/C(=O)NCCCCN=[N+]=[N-])ccc1OCc1ccccc1 observation_type=T/C observed="97 % of control"

# lookup: T/C of CC1CC(=O)Nc2nc(N)ncc21 (configuration not stated)
108 % of control

# lookup: T/C of "Cc1cc2nc(CC(=O)c3ccncc3)c(CC(=O)c3ccncc3)nc2cc1C"
91 % of control
